- experiment.description: CCTE_Simmons_MITO_max_resp_rate: CCTE's HepG2 Seahorse XF Respirometric Screening Assay at Maximal Respiratory State [uncoupled], Simmons Lab (AID 2284002)
- condition.set: actives raise or lower the signal
Activity calls are given as the source filed them. How the source made its calls: active means hit-call score of the fitted dose curve at least 0.9, where 1 is the maximum; inactive means score below 0.9.
Labels: 1.0 = active, 0.0 = inactive

[
  {
    "compound": "COc1cccc(-c2ccc(/C=C\\CN3CCCCCC3)cc2Cl)c1",
    "assigned.label": 1.0
  },
  {
    "compound": "COc1ccc2sc(C(=O)Nc3nnn[nH]3)c(OC(C)C)c2c1",
    "assigned.label": 0.0
  },
  {
    "compound": "CC(C)CC(C)(O)C#CC(C)(O)CC(C)C (centres undefined)",
    "assigned.label": 1.0
  },
  {
    "compound": "CC(C)c1cccc(C(C)C)c1N1C(=O)c2ccc(O)cc2C1=O",
    "assigned.label": 1.0
  }
]
